B1: CPEB3 Ribozyme (parent)
chain: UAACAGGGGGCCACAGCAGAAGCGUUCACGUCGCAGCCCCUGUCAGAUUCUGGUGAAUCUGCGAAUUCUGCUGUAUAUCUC

Variants of: B1
Test: self-cleavage, relative activity (ratio to wild type); higher = more cleavage; in vitro, sequencing
Classification field: enter class 1 for self-cleavage values not below 0.3, class 0 for values below it.

Incoming: Dear colleague, could you confirm whether A28G U74C has self-cleavage at or above 0.3?
Outgoing: class 1

Incoming: Same question for G22C A35U please.
Outgoing: class 0

Incoming: Same question for A5C A64G please.
Outgoing: class 1

Incoming: Same question for G19A U25A please.
Outgoing: class 0

Incoming: Same question for A5C G55U please.
Outgoing: class 1

Incoming: Same question for U25A C38U please.
Outgoing: class 0

Incoming: Same question for G53U A65G please.
Outgoing: class 1

Incoming: Same question for U49C G73U please.
Outgoing: class 1

Incoming: Same question for G16A U31G please.
Outgoing: class 1

Incoming: Same question for U48A U78C please.
Outgoing: class 1

Incoming: Same question for A5U C71U please.
Outgoing: class 1
